# % block annotations
Biological target: hERG K channel (Homo sapiens (Human))
Assay: hERG Q-Patch assay
Format: cell-based
Details: concentration 300 nM; CHO cells expressing hERG; K+ tail current 3 min after application; mean of two or three experiments
Description: Compounds are evaluated for block of the hERG K channel using CHO cells stably expressing the hERG gene (accession number U04270, bSys, Witterswil, Switzerland) and the QPatch robotic platform (Sophion, Ballerup, Denmark) in single-cell mode at room temperature. […] K^+ currents are measured with the patch-voltage-clamp technique in the whole-cell configuration with the internal solution (in mM: KCl, 140; NaCl, 10; MgCl2, 1; HEPES, 10: EGTA, 5; pH=7.2 with KOH). […]
Give a bare numeral; the unit % is implied.

Before answering, review these 2 worked examples.
1) CCOc1ncc(-c2nc(C(F)(F)F)sc2N2CCN(C(=O)Cn3cnc(C(F)(F)F)n3)[C@H](CO)C2)cn1	13
2) Cc1ncn(CC(=O)N2CCN(c3sc(C(F)(F)F)nc3-c3cnc(C(F)(F)F)nc3)C[C@H]2CCO)n1	11

Qu. What value of measured % block is listed for CC(=O)c1ncn(CC(=O)N2CCN(c3sc(C(F)(F)F)nc3-c3cnc(C(F)(F)F)nc3)C[C@@H]2CO)n1 ?
Ans. 2

Qu. Could you do the same for O=C(Cn1cnc(C(F)(F)F)n1)N1CCN(c2sc(C(F)(F)F)nc2-c2cnc(C3CC3)nc2)C[C@H]1CO , please?
Ans. 8

----------
target: human CXCR3A (Homo sapiens (Human)); assay: FLIPR assay (CXCL10-induced calcium signal); details: CHO-K1 cells expressing human CXCR3A coupled to Galpha(16); CXCL10 agonist 20 nM; mean values
Sequence (P49682 whole entry): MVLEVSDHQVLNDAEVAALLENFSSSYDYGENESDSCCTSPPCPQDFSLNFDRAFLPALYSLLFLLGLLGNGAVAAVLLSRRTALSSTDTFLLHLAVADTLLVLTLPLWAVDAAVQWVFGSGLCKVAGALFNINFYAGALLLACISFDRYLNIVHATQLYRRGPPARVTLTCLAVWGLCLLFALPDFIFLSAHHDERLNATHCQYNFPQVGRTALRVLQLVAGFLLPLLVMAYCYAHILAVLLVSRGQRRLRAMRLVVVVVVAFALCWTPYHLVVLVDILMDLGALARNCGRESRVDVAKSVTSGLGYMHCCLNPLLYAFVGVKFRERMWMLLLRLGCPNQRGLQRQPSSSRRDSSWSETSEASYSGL
Measured attribute: IC50 (nM)
Express it in nM; write the number only.

Known IC50 results, listed for orientation:
1) O=C(Cn1ccc(C2CC2)n1)N1CCN(c2sc(C(F)(F)F)nc2-c2cnc(C(F)(F)F)nc2)C[C@H]1CCO	0.45
2) Cc1nc(-c2ncn(CC(=O)N3CCN(c4sc(C(F)(F)F)nc4-c4cnc(C(F)(F)F)nc4)C[C@@H]3CO)n2)no1	510
3) O=C(Cn1ccc2cc(F)ccc21)N1CCN(c2sc(C(F)(F)F)nc2-c2cnc(C(F)(F)F)nc2)C[C@@H]1CO	0.7
4) Cc1nc(C)n(CC(=O)N2CCN(c3sc(C(F)(F)F)nc3-c3cnc(C(F)(F)F)nc3)C[C@H]2CO)n1	6
5) Cc1nc(C)n(CC(=O)N2CCN(c3sc(C(F)(F)F)nc3-c3cnc(C4CC4)nc3)C[C@H]2CO)n1	10

Qu. Return IC50 measured with human CXCR3A (Homo sapiens (Human)) given this compound: O=C(Cn1cnc(-c2ccccn2)n1)N1CCN(c2sc(C(F)(F)F)nc2-c2cnc(C(F)(F)F)nc2)C[C@@H]1CO
Ans. 35

Qu. Another compound to check: CC(C)c1ncn(CC(=O)N2CCN(c3sc(C(F)(F)F)nc3-c3ccc(C(F)(F)F)nc3)C[C@@H]2CO)n1
Ans. 1.1

----------
molecular target: hERG K channel (Homo sapiens (Human), UniProt Q12809); test: hERG Q-Patch assay; format: cell-based; conditions: concentration 3000 nM; CHO cells expressing hERG; K+ tail current 3 min after application; mean of two or three experiments
Sequence (Q12809 whole entry): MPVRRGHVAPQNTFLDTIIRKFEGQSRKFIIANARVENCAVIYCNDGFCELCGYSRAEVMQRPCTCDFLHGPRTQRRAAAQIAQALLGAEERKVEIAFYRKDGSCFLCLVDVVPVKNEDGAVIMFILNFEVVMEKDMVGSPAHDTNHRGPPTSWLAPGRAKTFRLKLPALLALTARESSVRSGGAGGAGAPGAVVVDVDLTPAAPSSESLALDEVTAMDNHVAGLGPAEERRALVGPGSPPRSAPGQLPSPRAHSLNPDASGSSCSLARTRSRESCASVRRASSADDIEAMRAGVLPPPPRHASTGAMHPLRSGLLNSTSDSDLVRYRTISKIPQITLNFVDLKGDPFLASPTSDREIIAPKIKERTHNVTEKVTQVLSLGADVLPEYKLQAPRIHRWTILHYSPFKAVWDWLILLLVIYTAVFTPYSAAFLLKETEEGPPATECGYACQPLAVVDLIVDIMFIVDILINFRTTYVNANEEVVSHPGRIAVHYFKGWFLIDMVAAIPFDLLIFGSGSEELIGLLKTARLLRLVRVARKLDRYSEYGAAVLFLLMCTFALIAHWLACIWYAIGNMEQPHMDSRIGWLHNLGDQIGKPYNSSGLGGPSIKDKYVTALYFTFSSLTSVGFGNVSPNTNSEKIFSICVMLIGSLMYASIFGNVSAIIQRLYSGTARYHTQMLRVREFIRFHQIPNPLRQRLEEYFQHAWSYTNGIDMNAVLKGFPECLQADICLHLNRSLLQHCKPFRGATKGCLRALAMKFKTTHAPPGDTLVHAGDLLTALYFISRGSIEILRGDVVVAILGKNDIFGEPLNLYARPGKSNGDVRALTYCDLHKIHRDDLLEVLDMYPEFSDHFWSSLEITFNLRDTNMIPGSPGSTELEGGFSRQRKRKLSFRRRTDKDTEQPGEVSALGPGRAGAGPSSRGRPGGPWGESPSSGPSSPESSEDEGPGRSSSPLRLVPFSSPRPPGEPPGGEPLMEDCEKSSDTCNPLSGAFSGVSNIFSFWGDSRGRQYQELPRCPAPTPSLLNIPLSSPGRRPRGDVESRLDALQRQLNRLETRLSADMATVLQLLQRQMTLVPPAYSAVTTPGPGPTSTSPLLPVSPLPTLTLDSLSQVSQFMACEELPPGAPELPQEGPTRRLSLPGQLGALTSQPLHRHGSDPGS
Each entry below carries its reported % block.
Form entry: value (%) — number only.

1. O=C(Cn1cnc(C2CC2)n1)N1CCN(c2sc(C(F)(F)F)nc2-c2cnc(C(F)(F)F)nc2)C[C@H]1CO	12
2. CCc1ncnn1CC(=O)N1CCN(c2sc(C(F)(F)F)nc2-c2cnc(C(F)(F)F)nc2)C[C@H]1CCO	6
3. CC(C)c1ncn(CC(=O)N2CCN(c3sc(C(F)(F)F)nc3-c3ccc(C(F)(F)F)nc3)C[C@@H]2CO)n1	12
4. Cc1ncn(CC(=O)N2CCN(c3sc(C(F)(F)F)nc3-c3cnc(C(F)(F)F)nc3)C[C@@H]2CO)n1	1
5. Cc1ncn(CC(=O)N2CCN(c3sc(C(F)(F)F)nc3-c3cnc(C(F)(F)F)nc3)C[C@H]2CCO)n1	25

Qu. Name the reported % block value associated with the compound CCOc1ncc(-c2nc(C(F)(F)F)sc2N2CCN(C(=O)Cn3cnc(C(F)(F)F)n3)[C@H](CO)C2)cn1
Ans. 23

Qu. // repeat for CCc1ncn(CC(=O)N2CCN(c3sc(C(F)(F)F)nc3-c3cnc(C(F)(F)F)nc3)C[C@H]2CCO)n1 and report
Ans. 19

Qu. // next record CC(C)c1ncn(CC(=O)N2CCN(c3sc(C(F)(F)F)nc3-c3cnc(C(F)(F)F)nc3)C[C@H]2CCO)n1
Ans. 34

Qu. Similarly, O=C(Cn1cnc(C2CCC2)n1)N1CCN(c2sc(C(F)(F)F)nc2-c2cnc(C(F)(F)F)nc2)C[C@H]1CCO ?
Ans. 38

Cited source: patent US10053457B2
